test system: 317291-083-R-J1-PDC complex spheroid growth; assay: Anticancer human tumor 317291-083-R-J1-PDC patient-derived soft tissue sarcoma cell line growth inhibition [Asc]; details: curve of first compound; second compound 0.1 µM
Quantity kind: IC50 (µM)
Give bare numbers, in µM.

Compound	Units label	Readout number
Cc1nc(N2CCC3(CC2)COC(C)C3N)c(CO)nc1Sc1ccnc(N)c1Cl (stereo not drawn) + Cc1c(S(C)(=O)=O)c(-c2cc(F)cc(N3CCN(c4ccc(NS(=O)(=O)c5ccc(NC(CCN6CCC(C(=O)OCCCP(=O)(O)O)CC6)CSc6ccccc6)c(S(=O)(=O)C(F)(F)F)c5)cc4)CC3)c2)c(-c2ccc(Cl)cc2)n1C(C)C	µM	2.54

Attention now turns to another entry.
Bench note: what IC50 did NC(=O)C(=Cn1cnc(-c2cc(C(F)(F)F)cc(C(F)(F)F)c2)n1)c1cncnc1 + CNC(C)C(=O)NC1CN(S(=O)(=O)c2cccc(S(=O)(=O)N3CCC4CCC(C(=O)NC(c5ccccc5)c5ccccc5)N4C(=O)C(NC(=O)C(C)NC)C3)c2)CCC2CCC(C(=O)NC(c3ccccc3)c3ccccc3)N2C1=O show?
0.00813

----------
test system: 317291-083-R-J1-PDC complex spheroid growth; assay: Anticancer human tumor 317291-083-R-J1-PDC cell line growth inhibition [Asc]; settings: second compound 1 µM; first compound 0.1 µM; stronger effect = lower value;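 also: compound exposure lasted seven days after spheroids formed for three days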;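 as to viability, T/C: 100% = DMSO vehicle control wells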
Quantity kind: viability, T/C (%)
Answers are plain numbers, in %.

Compound	Target	viability, T/C [%]
Cn1ncnc1[C@H]1c2n[nH]c(=O)c3cc(F)cc(c23)N[C@@H]1c1ccc(F)cc1 + Cc1c(S(C)(=O)=O)c(-c2cc(F)cc(N3CCN(c4ccc(NS(=O)(=O)c5ccc(NC(CCN6CCC(C(=O)OCCCP(=O)(O)O)CC6)CSc6ccccc6)c(S(=O)(=O)C(F)(F)F)c5)cc4)CC3)c2)c(-c2ccc(Cl)cc2)n1C(C)C	317291-083-R-J1-PDC complex spheroid growth	40.4
CNC(C)C(=O)NC1CN(S(=O)(=O)c2cccc(S(=O)(=O)N3CCC4CCC(C(=O)NC(c5ccccc5)c5ccccc5)N4C(=O)C(NC(=O)C(C)NC)C3)c2)CCC2CCC(C(=O)NC(c3ccccc3)c3ccccc3)N2C1=O (stereo unspecified) + Cc1c(S(C)(=O)=O)c(-c2cc(F)cc(N3CCN(c4ccc(NS(=O)(=O)c5ccc(NC(CCN6CCC(C(=O)OCCCP(=O)(O)O)CC6)CSc6ccccc6)c(S(=O)(=O)C(F)(F)F)c5)cc4)CC3)c2)c(-c2ccc(Cl)cc2)n1C(C)C	317291-083-R-J1-PDC complex spheroid growth	44.5
C=C(F)C(=O)N1CCN(c2nc(OCC3CCCN3C)nc3c2CCN(c2cccc4cccc(Cl)c24)C3)CC1CC#N (stereo unspecified) + CNC(C)C(=O)NC1CN(S(=O)(=O)c2cccc(S(=O)(=O)N3CCC4CCC(C(=O)NC(c5ccccc5)c5ccccc5)N4C(=O)C(NC(=O)C(C)NC)C3)c2)CCC2CCC(C(=O)NC(c3ccccc3)c3ccccc3)N2C1=O	317291-083-R-J1-PDC complex spheroid growth	32.2
NC1CCC(NC2CC2c2ccccc2)CC1 (stereo unspecified) + Cc1c(S(C)(=O)=O)c(-c2cc(F)cc(N3CCN(c4ccc(NS(=O)(=O)c5ccc(NC(CCN6CCC(C(=O)OCCCP(=O)(O)O)CC6)CSc6ccccc6)c(S(=O)(=O)C(F)(F)F)c5)cc4)CC3)c2)c(-c2ccc(Cl)cc2)n1C(C)C	317291-083-R-J1-PDC complex spheroid growth	74.1
C#Cc1c(F)ccc2cc(O)cc(-c3ncc4c(N5CC6CCC(C5)N6)nc(OCC56CCCN5CC(F)C6)nc4c3F)c12 (stereo unspecified) + Cc1c(S(C)(=O)=O)c(-c2cc(F)cc(N3CCN(c4ccc(NS(=O)(=O)c5ccc(NC(CCN6CCC(C(=O)OCCCP(=O)(O)O)CC6)CSc6ccccc6)c(S(=O)(=O)C(F)(F)F)c5)cc4)CC3)c2)c(-c2ccc(Cl)cc2)n1C(C)C	317291-083-R-J1-PDC complex spheroid growth	70.3

Attention now turns to another entry.
Bench note: what viability, T/C did O=C(c1ccc(F)c(F)c1Nc1ccc(I)cc1F)N1CC(O)([C@@H]2CCCCN2)C1 + CNC(C)C(=O)NC1CN(S(=O)(=O)c2cccc(S(=O)(=O)N3CCC4CCC(C(=O)NC(c5ccccc5)c5ccccc5)N4C(=O)C(NC(=O)C(C)NC)C3)c2)CCC2CCC(C(=O)NC(c3ccccc3)c3ccccc3)N2C1=O show?
33.5

----------
system: 317291-083-R-J1-PDC complex spheroid growth; assay: Anticancer human tumor 317291-083-R-J1-PDC cell line growth inhibition [Asc]; conditions: curve of first compound; second compound 0.1 µM;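 also: compound exposure lasted seven days after spheroids formed for three days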
pIC50: −log10 of the molar value.
Quantity kind: pIC50

Compound	pIC50
NC1CCC(NC2CC2c2ccccc2)CC1 (centres undefined) + Cc1c(S(C)(=O)=O)c(-c2cc(F)cc(N3CCN(c4ccc(NS(=O)(=O)c5ccc(NC(CCN6CCC(C(=O)OCCCP(=O)(O)O)CC6)CSc6ccccc6)c(S(=O)(=O)C(F)(F)F)c5)cc4)CC3)c2)c(-c2ccc(Cl)cc2)n1C(C)C	< 7.00
Cn1ncnc1[C@H]1c2n[nH]c(=O)c3cc(F)cc(c23)N[C@@H]1c1ccc(F)cc1 + Cc1c(S(C)(=O)=O)c(-c2cc(F)cc(N3CCN(c4ccc(NS(=O)(=O)c5ccc(NC(CCN6CCC(C(=O)OCCCP(=O)(O)O)CC6)CSc6ccccc6)c(S(=O)(=O)C(F)(F)F)c5)cc4)CC3)c2)c(-c2ccc(Cl)cc2)n1C(C)C	< 7.00
NC1CCC(NC2CC2c2ccccc2)CC1 (centres undefined) + CNC(C)C(=O)NC1CN(S(=O)(=O)c2cccc(S(=O)(=O)N3CCC4CCC(C(=O)NC(c5ccccc5)c5ccccc5)N4C(=O)C(NC(=O)C(C)NC)C3)c2)CCC2CCC(C(=O)NC(c3ccccc3)c3ccccc3)N2C1=O	< 7.00

Attention now turns to another entry.
Bench note: what pIC50 did O=C(c1cc(Cc2n[nH]c(=O)c3ccccc23)ccc1F)N1CCN(C(=O)C2CC2)CC1 + CNC(C)C(=O)NC1CN(S(=O)(=O)c2cccc(S(=O)(=O)N3CCC4CCC(C(=O)NC(c5ccccc5)c5ccccc5)N4C(=O)C(NC(=O)C(C)NC)C3)c2)CCC2CCC(C(=O)NC(c3ccccc3)c3ccccc3)N2C1=O show?
6.13

----------
tested on: 317291-083-R-J1-PDC complex spheroid growth; assay: Anticancer human tumor 317291-083-R-J1-PDC cell line growth inhibition [Asc]; conditions: second compound 0.0316 µM; first compound 0.00316 µM; stronger effect = lower value;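 also: compound exposure lasted seven days after spheroids formed for three days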;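 as to viability, T/C: 100% = DMSO vehicle control wells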
Quantity kind: viability, T/C (%)
One number for each entry, in %.

Compound	viability, T/C, %
O=C(c1ccc(F)c(F)c1Nc1ccc(I)cc1F)N1CC(O)([C@@H]2CCCCN2)C1 + Cc1c(S(C)(=O)=O)c(-c2cc(F)cc(N3CCN(c4ccc(NS(=O)(=O)c5ccc(NC(CCN6CCC(C(=O)OCCCP(=O)(O)O)CC6)CSc6ccccc6)c(S(=O)(=O)C(F)(F)F)c5)cc4)CC3)c2)c(-c2ccc(Cl)cc2)n1C(C)C	98.2
COc1c(OCCCN2CCOCC2)ccc2c3n(c(=NC(=O)c4cnc(N)nc4)nc12)CCN3 + Cc1c(S(C)(=O)=O)c(-c2cc(F)cc(N3CCN(c4ccc(NS(=O)(=O)c5ccc(NC(CCN6CCC(C(=O)OCCCP(=O)(O)O)CC6)CSc6ccccc6)c(S(=O)(=O)C(F)(F)F)c5)cc4)CC3)c2)c(-c2ccc(Cl)cc2)n1C(C)C	116
Cn1ncnc1[C@H]1c2n[nH]c(=O)c3cc(F)cc(c23)N[C@@H]1c1ccc(F)cc1 + CNC(C)C(=O)NC1CN(S(=O)(=O)c2cccc(S(=O)(=O)N3CCC4CCC(C(=O)NC(c5ccccc5)c5ccccc5)N4C(=O)C(NC(=O)C(C)NC)C3)c2)CCC2CCC(C(=O)NC(c3ccccc3)c3ccccc3)N2C1=O	82.5

Attention now turns to another entry.
Bench note: what viability, T/C did CCN1CCN(Cc2ccc(Nc3ncc(F)c(-c4cc(F)c5nc(C)n(C(C)C)c5c4)n3)nc2)CC1 + Cc1c(S(C)(=O)=O)c(-c2cc(F)cc(N3CCN(c4ccc(NS(=O)(=O)c5ccc(NC(CCN6CCC(C(=O)OCCCP(=O)(O)O)CC6)CSc6ccccc6)c(S(=O)(=O)C(F)(F)F)c5)cc4)CC3)c2)c(-c2ccc(Cl)cc2)n1C(C)C show?
97.4

----------
test system: 317291-083-R-J1-PDC complex spheroid growth; test: Anticancer human tumor 317291-083-R-J1-PDC cell line growth inhibition [Asc]; conditions: second compound 1 µM; first compound 0.0316 µM; stronger effect = lower value;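 also: compound exposure lasted seven days after spheroids formed for three days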;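 as to viability, T/C: 100% = DMSO vehicle control wells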
What viability, T/C was measured for each of the following?
One number for each entry, in %.

// worked examples, viability, T/C included
Compound	Units label	Readout number
O=C(c1ccc(F)c(F)c1Nc1ccc(I)cc1F)N1CC(O)([C@@H]2CCCCN2)C1 + Cc1c(S(C)(=O)=O)c(-c2cc(F)cc(N3CCN(c4ccc(NS(=O)(=O)c5ccc(NC(CCN6CCC(C(=O)OCCCP(=O)(O)O)CC6)CSc6ccccc6)c(S(=O)(=O)C(F)(F)F)c5)cc4)CC3)c2)c(-c2ccc(Cl)cc2)n1C(C)C	%	72.6
O=C(c1cc(Cc2n[nH]c(=O)c3ccccc23)ccc1F)N1CCN(C(=O)C2CC2)CC1 + CNC(C)C(=O)NC1CN(S(=O)(=O)c2cccc(S(=O)(=O)N3CCC4CCC(C(=O)NC(c5ccccc5)c5ccccc5)N4C(=O)C(NC(=O)C(C)NC)C3)c2)CCC2CCC(C(=O)NC(c3ccccc3)c3ccccc3)N2C1=O	%	34.3

Bench note: what viability, T/C did Cn1ncnc1[C@H]1c2n[nH]c(=O)c3cc(F)cc(c23)N[C@@H]1c1ccc(F)cc1 + CNC(C)C(=O)NC1CN(S(=O)(=O)c2cccc(S(=O)(=O)N3CCC4CCC(C(=O)NC(c5ccccc5)c5ccccc5)N4C(=O)C(NC(=O)C(C)NC)C3)c2)CCC2CCC(C(=O)NC(c3ccccc3)c3ccccc3)N2C1=O show?
29.2

Reference for the values: PubChem BioAssay AID1963427
